# EXPERIMENTAL_DETAILS: in vivo
# ASSAY_SETUP: in vivo, po; mouse; Table III; read-out: DL50 (the source's name)
Catalogue of LD50 readings, one per entry.
Reply with just the number (in mg/kg).

{"columns": ["COMPOUND", "LD50 [mg/kg]"],
 "data": [
  ["CCCC(CCC)C(=O)O [Na Valproate, reference compound]", 1250]
]}

*Q* Determine its reported LD50: CCC1(c2ccccc2)C(=O)NC(=O)NC1=O [Na Phenobarbital, reference compound]
*A* 185

###

# EXPERIMENTAL_DETAILS: in vivo
# ASSAY_SETUP: mouse, in vivo, po, mice; Table II; read-out: DL50 (the source's name)
Catalogue of LD50 readings, one per entry.

Below, each entry is followed by its recorded LD50 result.
{"columns": ["COMPOUND", "LD50"],
 "data": [
  ["CCCCCCN(CC(N)=O)C(=O)c1ccccc1", "3660 mg/kg"],
  ["CCCCCCCCC=CCCCCCCCCNCC(N)=O [Compound 17, 2-n-octadecen-9-ylaminoacetamide]", "> 3000 mg/kg"]
]}

*Q* Determine its reported LD50: CCCCCNCC(N)=O.Cl [Compound 33, 2-n-pentylaminoacetamide hydrochloride]
*A* 2880 mg/kg

*Q* Determine its reported LD50: CCCCCCCCCCCCCCCCCCNCC(N)=O [Compound 10, 2-n-octadecylaminoacetamide]
*A* > 3000 mg/kg

*Q* Determine its reported LD50: CCCCCCCNCC(N)=O [Compound 9, 2-n-Heptylaminoacetamide]
*A* 1420 mg/kg

*Q* Determine its reported LD50: CCCCCCCC(C)NCC(N)=O (stereo not drawn)
*A* > 1000 mg/kg

*Q* Determine its reported LD50: CCCCCCCCCCCCNCC(N)=O [Compound 13, 2-n-docecylaminoacetamide]
*A* > 3000 mg/kg

*Q* Determine its reported LD50: COC(=O)CCCCCNCC(N)=O
*A* > 3000 mg/kg

*Q* Determine its reported LD50: NC(=O)CN(CCCCCCO)CC(N)=O
*A* > 3000 mg/kg
